Measured TGI accompanies every entry in the list below.
# Tested on: KM12 colon
# PROTOCOL_TEXT: NCI tumour cell line growth inhibition, 48 h

O=C(Nc1ccc(Cl)cc1Cl)C(=O)C(C(=O)c1ccc2ccccc2c1)C1OC(=O)c2ccccc21 (stereo unspecified) : 31.9 µM
COc1cccc(CC(C)NCC(O)c2ccc(O)c(O)c2)c1 (stereo unspecified) : > 100 µM
CCOC(=O)C1(Br)C(c2ccccc2)NC(=O)NC1(C)Br (stereo unspecified) : > 100 µM

Problem: Give a short answer stating reported TGI for COC(=O)C1C(O)CC(c2ccccn2)N(Cc2ccccc2)C1c1ccccn1 (stereo unspecified) .
Solution: > 100 µM

Problem: Give a short answer stating reported TGI for O=C1CCC2(CCO1)OCCO2 .
Solution: > 100 µM

* * *

# Test system: SNB-19 CNS
# PROTOCOL_TEXT: NCI tumour cell line growth inhibition, 48 h
ASSAY_ENDPOINT: TGI

Below, each entry is followed by its recorded TGI result.
CC(=O)NNc1nc(C)c(C(=O)NNC(=O)C(=O)Nc2c(C)cccc2C)s1 : > 100 µM
O=Nc1c(-c2c(O)[nH]c3ccc([N+](=O)[O-])cc23)[nH]c2ccc(O)cc12 : > 100 µM

Problem: Give a short answer stating reported TGI for COc1ccc2c(c1)C(=O)c1c-2n(CCCN=[N+]=[N-])c(=O)c2cc(N(C)C)ccc12 .
Solution: > 100 µM

Problem: Give a short answer stating reported TGI for CC1(C)CC[C@H](Nc2ncc(C(F)(F)F)c(-c3c[nH]c4c(P(C)(C)=O)c(C#N)ccc34)n2)CN1 .
Solution: > 54.3 µM

* * *

# Tested on: TK-10 renal
# PROTOCOL_TEXT: NCI tumour cell line growth inhibition, 48 h; in the data active means GI50 below about 0.43 µM; inactive means the rest
Valid outcomes are listed here; reply with one: active, inactive

Take a look at these entries with their results.
CCCCCCCNc1nc(C(=O)OCC)ncc1-c1ccc(C(F)(F)F)cc1 : inactive
O=C1C(c2c[nH]c3ccccc23)=C(c2c[nH]c3ccccc23)C(=O)N1O : inactive
COc1ccc(N2Cc3cnc(Nc4ccccc4)nc3N([C@@H]3CC[C@@H](O)C3)C2=O)cc1 : inactive

Problem: Can you look up the reported call for Cc1ccc(/C(=N\N=C(N)N)c2ccccc2)cc1 for me?
Solution: inactive

* * *

# Tested on: K-562 leukemia
# PROTOCOL_TEXT: NCI tumour cell line growth inhibition, 48 h; in the data active = GI50 below about 0.43 µM; inactive = the rest
Valid outcomes are listed here; reply with one: active, inactive

CCN(CC)CCNc1ccc([N+](=O)[O-])c2sc3ccccc3c(=O)c12 : inactive
Cc1cc(/C=C\c2ccc3ccccc3[n+]2C)c(O)c2ncccc12 : active
Cc1ccc(S(=O)(=O)NCCNC2=CC(=O)c3nc4ccccc4c4ccnc2c34)cc1 : inactive
COc1ccc(Nc2ncc(Br)c(NCCCNC(=O)C3CCC3)n2)cc1 : inactive
Clc1ccc(N2N=C(c3cccc(Nc4ccncc4)c3)CC2c2ccc3c(c2)OCO3)cc1 (stereo not given) : inactive

Problem: Can you look up the reported call for Oc1ccc(C(c2ccc(O)cc2)c2ccc(Cl)cn2)cc1 for me?
Solution: inactive

Problem: Can you look up the reported call for C=C1SC(=Nc2c(C)cc(C)cc2C)N(C(=O)c2sc3ccccc3c2Cl)C12CCCCC2 for me?
Solution: inactive

* * *

# Tested on: RPMI-8226 leukemia
# PROTOCOL_TEXT: NCI tumour cell line growth inhibition, 48 h; in the data active = GI50 below about 0.43 µM; inactive = the rest
Valid outcomes are listed here; reply with one: true = active, false = inactive

Take a look at these entries with their results.
Cc1ccc(/C(=N\N=C(N)N)c2ccccc2)cc1 : false
Oc1ccc(C(c2ccc(O)cc2)c2ccc(Cl)cn2)cc1 : false
CCC(=O)O[C@H]1CC[C@H]2[C@@H]3CC[C@H]4CC(=O)[C@H](C)C[C@]4(C)[C@H]3CC[C@]12C : false
Cc1ccc(S(=O)(=O)NCCNC2=CC(=O)c3nc4ccccc4c4ccnc2c34)cc1 : false
COc1cc(CCN)c2c(c1OC)SSSSS2 : true
O=C(/C=C/C12c3ccccc3C(c3ccccc31)C1C(=O)N(c3ccccc3)C(=O)C12)c1ccccc1 (stereo not drawn) : false
O=C(Nc1ccc(F)cc1)c1ccc(NC2=C(Cl)C(=O)N(Cc3ccccc3)C2=O)cc1 : false

Alright, here's another molecule for you.
Problem: Can you look up the reported call for FC(F)(F)c1cc(-c2nnc3n2N=C(N2CCCC2)CS3)cc(C(F)(F)F)c1 for me?
Solution: false

* * *

# System: A549 NSCLC
# PROTOCOL_TEXT: NCI tumour cell line growth inhibition, 48 h
Measured GI50 accompanies every entry in the list below.

Below, each entry is followed by its recorded GI50 result.
O=C1C(c2c[nH]c3ccccc23)=C(c2c[nH]c3ccccc23)C(=O)N1O : > 25 µM
CN(C)c1ccc([O-])cc1.CN(C)c1ccc([O-])cc1.CN(C)c1ccc([O-])cc1.CN(C)c1ccc([O-])cc1.[Ti+4] : 51.9 µM
Cc1cc(/C=C\c2ccc3ccccc3[n+]2C)c(O)c2ncccc12 : 0.564 µM
O=[N+]([O-])c1ccc(S(=O)Cc2ccccc2)c([N+](=O)[O-])c1 (stereo not given) : 16.3 µM

Next molecule, GI50 to be filled in.
Problem: Give a short answer stating reported GI50 for COc1ccccc1/C=C/[N+](=O)[O-] .
Solution: 3 µM

* * *

# Test system: NCI-H460 lung
# PROTOCOL_TEXT: NCI tumour cell line growth inhibition, 48 h
Measured TGI accompanies every entry in the list below.

Below, each entry is followed by its recorded TGI result.
COc1ccc(C2SCC(=O)N2NC(=O)C(O)c2ccccc2)cc1OC (stereo not given) : > 100 µM
CC(C)CNCC(O)COc1ccc(C(C)(C)c2ccc(OCC(O)CNCC(C)C)cc2)cc1 (stereo not given) : 4.11 µM
Cc1cc(=O)n2nc(SCc3ccccc3)sc2n1 : > 100 µM

Problem: Give a short answer stating reported TGI for O=C(CSCC(=O)N/N=C/c1cccs1)N/N=C/c1cccs1 .
Solution: > 100 µM

Problem: Give a short answer stating reported TGI for N=c1oc2ccc3ccccc3c2cc1C(N)=O .
Solution: > 100 µM

Problem: Give a short answer stating reported TGI for O=C1NC(=O)/C(=C/c2ccc(S(=O)(=O)N/N=C/c3ccc(Cl)cc3)cc2)N1 .
Solution: > 100 µM

Problem: Give a short answer stating reported TGI for c1ccc(CCN2CCc3[nH]c4ccccc4c3C2)cc1 .
Solution: 30.9 µM

Problem: Give a short answer stating reported TGI for COc1ccc(-c2oc3c(OC)c(OC)c(OC)c(O)c3c(=O)c2OC)cc1OC .
Solution: > 83.7 µM

Problem: Give a short answer stating reported TGI for O=CC(O)C(O)C(O)C(O)C(=O)NCCCCCCCCCCCCNC(=O)C(O)C(O)C(O)C(O)C=O (stereo not given) .
Solution: > 100 µM

Problem: Give a short answer stating reported TGI for O=C(Nc1cccc([N+](=O)[O-])c1)C(=O)C(C(=O)c1ccccc1-c1ccccc1)C1OC(=O)c2ccccc21 (stereo not given) .
Solution: 88 µM

* * *

# Test system: HOP-62 NSCLC
# PROTOCOL_TEXT: NCI tumour cell line growth inhibition, 48 h
ASSAY_ENDPOINT: GI50

COc1ccc(C2SCC(=O)N2NC(=O)C(O)c2ccccc2)cc1OC (stereo not given) : > 100 µM
O=C(/C=C/C12c3ccccc3C(c3ccccc31)C1C(=O)N(c3ccccc3)C(=O)C12)c1ccccc1 (stereo not given) : 3.23 µM
C=CCN(/C=C1/C(=O)O[C@H](COC)[C@@]2(C)C1=C(O)C(=O)C1=C2[C@H](OC(C)=O)C[C@]2(C)C(=O)CC[C@@H]12)CC=C : 2.04 µM
Cc1ccc(S(=O)(=O)NCCNC2=CC(=O)c3nc4ccccc4c4ccnc2c34)cc1 : 20.6 µM

Problem: Give a short answer stating reported GI50 for O=[N+]([O-])c1ccc(S(=O)Cc2ccccc2)c([N+](=O)[O-])c1 (stereo not given) .
Solution: 11.6 µM

Problem: Give a short answer stating reported GI50 for COc1ccccc1/C=C/[N+](=O)[O-] .
Solution: 2.57 µM

Problem: Give a short answer stating reported GI50 for CN1CCN(c2ccc(NC(=O)c3nc4ccc5[nH]ncc5c4c4c3CCCC4)cc2C(F)(F)F)CC1 .
Solution: 0.918 µM

Problem: Give a short answer stating reported GI50 for CCCCCCCNc1nc(C(=O)OCC)ncc1-c1ccc(C(F)(F)F)cc1 .
Solution: 55.7 µM

Problem: Give a short answer stating reported GI50 for Cc1c(S(C)(=O)=O)c(-c2cc(F)cc(N3CCN(c4ccc(NS(=O)(=O)c5ccc(N[C@H](CCN6CCC(C(=O)OCCCP(=O)(O)O)CC6)CSc6ccccc6)c(S(=O)(=O)C(F)(F)F)c5)cc4)CC3)c2)c(-c2ccc(Cl)cc2)n1C(C)C .
Solution: > 100 µM
